MIC: recorded values
test system: Staphylococcus aureus; test: Antibacterial activity against methicillin-resistant Staphylococcus aureus DM 21455 after 24 hrs by broth microdilution method; assay type: functional; conditions: DM 21455, 24 h
Measurement name: MIC (µg/mL)

Mol smiles	Measurement name	Unit	Test value
CCN(CC)CCCCCCOc1cc(O)c2c(=O)c(OCCCCCCN(CC)CC)c(-c3ccc(OC)cc3)oc2c1CC=C(C)C	MIC	µg/mL	3.13
COc1ccc(-c2oc3c(CC=C(C)C)c(O)cc(O)c3c(=O)c2O)cc1	MIC	µg/mL	50
COc1ccc(-c2oc3c(CC=C(C)C)c(OCCCCN(C)C)cc(O)c3c(=O)c2OCCCCN(C)C)cc1	MIC	µg/mL	12.5

###

system: Staphylococcus aureus; test: Antibacterial activity against methicillin-resistant Staphylococcus aureus DM 9808R after 24 hrs by broth microdilution method; assay type: functional
MIC: recorded values

Compound	Unit	MIC
CN[C@H](CC(C)C)C(=O)N[C@H]1C(=O)N[C@@H](CC(N)=O)C(=O)N[C@H]2C(=O)N[C@H]3C(=O)N[C@H](C(=O)N[C@H](C(=O)O)c4cc(O)cc(O)c4-c4cc3ccc4O)[C@H](O)c3ccc(c(Cl)c3)Oc3cc2cc(c3O[C@@H]2O[C@H](CO)[C@@H](O)[C@H](O)[C@H]2O[C@H]2C[C@](C)(N)[C@H](O)[C@H](C)O2)Oc2ccc(cc2Cl)[C@H]1O [VANCOMYCIN]	µM	2.2
COC(=O)[C@H](CCCNC(=N)N)NC(=O)COc1cc(O)c2c(=O)c(O)c(-c3ccc(OC)cc3)oc2c1CC=C(C)C	µM	5.2
COc1ccc(-c2oc3c(CC=C(C)C)c(OCC(=O)N[C@@H](CCCNC(=N)N)C(=O)OC(C)(C)C)cc(O)c3c(=O)c2OCC(=O)N[C@@H](CCCNC(=N)N)C(=O)OC(C)(C)C)cc1	µM	3.4

###

experiment: Ratio of HC50 for New Zealand white rabbit RBC to MIC for methicillin-sensitive Staphylococcus aureus DM4583R
Ratio: recorded values
Measurement name: Ratio

Compound	Test value
CC(C)(C)c1cc(C(C)(C)C)c2[nH]c(C(C)(C)C)c(C[C@H](NC(=O)[C@@H](N)CCCNC(=N)N)C(=O)N[C@@H](CCCNC(=N)N)C(=O)NCCc3ccccc3)c2c1 [LTX-109]	44
COc1ccc(-c2oc3c(CC=C(C)C)c(O)cc(O)c3c(=O)c2O)cc1 [ICARITIN]	> 8
COC(=O)[C@H](CCCNC(=N)N)NC(=O)COc1cc(O)c2c(=O)c(OCC(=O)N[C@@H](CCCNC(=N)N)C(=O)OC)c(-c3ccc(OC)cc3)oc2c1CC=C(C)C	> 511
N=C(N)NCCCCC(=O)Nc1cc(C(F)(F)F)cc(NC(=O)c2cc(C(=O)Nc3cc(C(F)(F)F)cc(NC(=O)CCCCNC(=N)N)c3O[C@@H]3CCNC3)ncn2)c1O[C@@H]1CCNC1 [BRILACIDIN]	558

###

experiment: Cytotoxicity against human Corneal fibroblasts assessed cell viability at 100 uM after 24 hrs by Cell Titer-Glo luminescent assay; format: cell-based, Corneal fibroblast; details: read-out: Activity

Mol smiles	viability at 24 h, 100 µM
COC(=O)[C@H](CCCNC(=N)N)NC(=O)COc1cc(O)c2c(=O)c(OCC(=O)N[C@@H](CCCNC(=N)N)C(=O)OC)c(-c3ccc(OC)cc3)oc2c1CC=C(C)C	57.7%

Origin of values: ChEMBL document CHEMBL4011638
